This collection of values is drawn from patent US7524885B2.

test system: isolated working rat heart; assay: Glucose oxidation in isolated perfused working rat heart ([U-14C]glucose, 14CO2 production); conditions: Table 2A; screening concentration 100 μM; isolated working rat heart; read-out: Glucose Oxidation (% above control)
recorded endpoint: activation at 100 µM

# molecule, recorded result
rows = [
    ("O=C(OCCOCCOCc1ccccc1)C1CCC1", "68%"),
    ("CCCCOCCOCCOC(=O)C1CCC1", "65%"),
    ("O=C(OCCOCCOC(=O)C1CCC1)C1CCC1", "243%"),
    ("CN(C)CCOCCOC(=O)C1CC1", "77%"),
    ("O=C(OCCOCCOCCOC(=O)C1CC1)C1CC1", "228%"),
    ("CC(C)OCCOC(=O)C1CCC1", "97%"),
    ("O=C(OCCN(CCOC(=O)C1CC1)CCN(CCOC(=O)C1CC1)CCOC(=O)C1CC1)C1CC1", "274%"),
    ("O=C(OCCOCCOC(=O)C1CC1)C1CC1", "97%"),
    ("COCCOCCOC(=O)C1CC1", "20%"),
    ("COCCOCCOCCOC(=O)C1CCC1", "54%"),
    ("COCCOCCOCCOC(=O)C1CC1", "102%"),
    ("CN(C)CCOCCOC(=O)C1CCC1", "41%"),
    ("O=C(OCCOCCOCCOC(=O)C1CCC1)C1CCC1", "184%"),
    ("CCCCCCOCCOCCOC(=O)C1CCC1", "0%"),
    ("O=C(OCCOCCOCc1ccccc1)C1CC1", "104%"),
    ("CC(C)OCCOC(=O)[C@@H]1C[C@H]1c1ccccc1 (racemic)", "200%"),
    ("CC(C)OCCNC(=O)C1CC1", "217%"),
    ("CCCCCCOCCOCCOC(=O)C1CC1", "83%"),
    ("CC(C)OCCOC(=O)C1CC1", "208%"),
    ("COCCOCCOC(=O)C1CCC1", "50%"),
    ("CCOCCOC(=O)C1CCC1", "162%"),
    ("CCOCCOC(=O)C1CC1", "416%"),
]
